protocolSummary: AUC (0 to t) in Sprague-Dawley rat at 10 mg/kg, po by LC-MS analysis
Type: ADME, organism-based
Parameters: dose 10 mg/kg, route po
conditionLabel: in vivo
reportedProperty: AUC(0-t) (ng·h/mL)
Please reply with the bare figure in ng·h/mL and do not write the unit itself.

AUC(0-t) in this record for Cc1cccc(C)c1-c1cccc(COc2ccc([S@@+]([O-])CC(=O)O)cc2)c1 : 7620

###

protocolSummary: Metabolic stability in rat liver microsomes assessed as half life
Type: ADME, Microsome
reportedProperty: half-life (h)
Please reply with the bare figure in h and do not write the unit itself.

half-life in this record for Cc1cccc(C)c1-c1cccc(COc2ccc([S@@+]([O-])CC(=O)O)cc2)c1 : 3.82
